test-system: T1, human common cytokine receptor γ-chain (IL-2Rγ) (human, UniProt P31785 23-262, limits assumed)
T1 construct: Recombinant human IL-2Rγ protein, coated (ELISA) or amine-coupled to a CM5 chip (SPR); also called hu IL-2R; CD132
T1 sequence: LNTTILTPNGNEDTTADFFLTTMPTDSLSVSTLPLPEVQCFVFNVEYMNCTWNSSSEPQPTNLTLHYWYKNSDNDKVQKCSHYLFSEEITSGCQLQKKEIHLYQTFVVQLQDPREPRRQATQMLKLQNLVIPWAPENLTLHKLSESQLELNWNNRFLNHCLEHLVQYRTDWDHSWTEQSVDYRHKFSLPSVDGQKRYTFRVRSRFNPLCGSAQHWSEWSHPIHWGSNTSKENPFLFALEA
test-description: P.E. off-rate SPR
parameter: koff (s⁻¹)
Give just the number in s⁻¹; leave the unit off.

Below are worked cases with known answers.
- binder: "FJ1427_P035MP07F10 (VHH, tested as periplasmic extract; also called Clone nr; 654) VHH: QVQLQESGGGLVQAGGSLRLSCAASGRTLSRYAMGWFRQAPGKEREFVACDSWGGDTFYADSVEGRFTFSRDNAKNATYLQMNSLQPEDTAVYYCAGAPTSFATTAYSSSNSYTVWGQGTQVTVSL"
  koff / s⁻¹: 0.00199
- binder: "FJ1427_P035MP07D04 (VHH, tested as periplasmic extract; also called Clone nr) VHH: EVQLVESGGGLVQAGGSLRLSCAASGRTLSRYAMGWFRQGPGKEREFVAADSWGGDTYYDDSVEGRFTFSRDITKNAVYLQMNSLQPEDTAVYYCAAAPTSFATTAYSSSNSYAYWGQGTQVTVSS"
  koff / s⁻¹: 0.00243
- binder: "FJ1427_P035MP07H05 (VHH, tested as periplasmic extract; also called Clone nr) VHH: QVQLVESGGGLVQAGGSLRLSCAASGRTLSRYAMGWFRQAPGKEREFVAANSWGGDTYYTDSVEGRFTFSRDNAKNAVYLQMNSLQPGDTAVYYCAAAPTSFATTAYSSSNSYSYWGQGTQVTVSS"
  koff / s⁻¹: 0.00279

Req: Please supply the value of reported koff for the item FJ1427_P035MP07A10 (VHH, tested as periplasmic extract; also called Clone nr) VHH: QVQLVESGGGLVQAGGSLRLSCAASGRTLSRYAMGWFRQAPGSEREFVAASSWGGDTFYADSVEGRFTFSRDNAKNAVYLQMNSLQPEDTAAYYCAAAPTSFPTTAYSSSNSYAYWGQGTQVTVSS
Resp: 0.00242
